Biological target: hFFA3 (Homo sapiens)
Sequence (O14843 whole entry): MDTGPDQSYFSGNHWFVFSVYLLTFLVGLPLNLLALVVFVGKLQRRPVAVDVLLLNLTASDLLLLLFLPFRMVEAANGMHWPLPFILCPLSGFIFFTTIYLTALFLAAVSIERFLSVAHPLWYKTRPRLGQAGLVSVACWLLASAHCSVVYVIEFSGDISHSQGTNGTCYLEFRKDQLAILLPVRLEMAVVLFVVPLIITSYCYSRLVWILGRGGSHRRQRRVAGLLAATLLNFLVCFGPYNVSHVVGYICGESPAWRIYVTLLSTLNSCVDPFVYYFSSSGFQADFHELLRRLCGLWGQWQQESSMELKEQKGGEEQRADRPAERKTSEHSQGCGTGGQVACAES
Test: cell-based
Settings: hFFA3; compound alone; mean of ≥3 independent experiments ± standard error
cAMP pEC50 overview

COMPOUND: CC1=C(C(=O)Nc2ccccc2C)C(c2ccc(C(F)(F)F)cc2)C2=C(CCCC2=O)N1 (centres unmarked)
cAMP pEC50: 5.31
--
COMPOUND: CCCC1C(C(=O)Nc2cc(C)ccc2Cl)=C(C)NC2=C1C(=O)CCC2 (centres unmarked)
cAMP pEC50: 6.19
--
COMPOUND: CC1=C(C(=O)Nc2ccccc2C)C(CC(C)C)C2=C(CCCC2=O)N1 (centres unmarked)
cAMP pEC50: 5.00
--
COMPOUND: CC1=C(C(=O)Nc2ccccc2C)C(c2ccc(Br)o2)C2=C(CCCC2=O)N1 (centres unmarked)
cAMP pEC50: 6.61
--
COMPOUND: COc1ccccc1NC(=O)C1=C(C)NC2=C(C(=O)CCC2)C1c1ccco1 (centres unmarked)
cAMP pEC50: 6.43
--
COMPOUND: CC1=C(C(=O)Nc2ccccc2C)C(c2ccco2)C2=C(CCCC2=O)N1 (centres unmarked) [Compound 1, reference compound]
cAMP pEC50: 6.28
--
COMPOUND: CC1=C(C(=O)Nc2cc(Cl)ccc2Cl)C(c2cscn2)C2=C(CCCC2=O)N1 (centres unmarked)
cAMP pEC50: 5.71
--
COMPOUND: CCC1C(C(=O)Nc2ccccc2C)=C(C)NC2=C1C(=O)CCC2 (centres unmarked)
cAMP pEC50: 5.38
